AUC values, listed per item
- test-method-notes: Rat PK test
- Assay type: in vivo
- condition-summary: iv; male Sprague-Dawley rat, caudal vein administration, 0.5 mg/kg, plasma
property-label: AUC

- molecule: "Cc1ccn(-c2ccc(C(=O)N3CCC(C)(C(=O)NC(C)CO)Cc4ccccc43)c(C(F)(F)F)c2)n1 (single isomer, unassigned) [Example 89]"
  reading: "371 ng·h/mL"
- molecule: "Cc1ccn(-c2ccc(C(=O)N3CCC(C)(C(=O)NC(C)CO)Cc4ccccc43)c(Cl)c2)n1 (single isomer, unassigned) [Example 72]"
  reading: "430 ng·h/mL"
- molecule: "C[C@@H]1CN(C(=O)c2ccc(-n3cccn3)cc2Cl)c2ccccc2CN1C(=O)NCCO [comparative compound 1, reference compound]"
  reading: "176 ng·h/mL"
- molecule: "CC(NC(=O)C1(C)CCN(C(=O)c2ccc(N3CCCC3)cc2C(F)(F)F)c2ccccc2C1)C(N)=O (single isomer, unassigned) [Example 90]"
  reading: "613 ng·h/mL"

----------
- test-system: human V2 receptor (Homo sapiens)
- Construct: A DNA fragment containing a human V2 receptor code region
- Sequence (P30518 whole entry, the tested form may be a part): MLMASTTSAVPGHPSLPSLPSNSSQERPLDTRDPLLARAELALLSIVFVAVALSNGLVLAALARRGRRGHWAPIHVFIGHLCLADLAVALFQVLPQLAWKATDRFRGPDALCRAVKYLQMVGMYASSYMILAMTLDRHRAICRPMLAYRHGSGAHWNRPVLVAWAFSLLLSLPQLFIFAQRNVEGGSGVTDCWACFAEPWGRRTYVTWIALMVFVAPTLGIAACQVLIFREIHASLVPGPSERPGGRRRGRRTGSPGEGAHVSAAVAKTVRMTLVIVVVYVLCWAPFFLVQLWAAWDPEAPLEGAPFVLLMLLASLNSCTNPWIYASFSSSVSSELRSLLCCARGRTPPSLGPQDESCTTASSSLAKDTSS
- test-method-notes: cAMP production test in V2 receptor expression cell
- condition-summary: human V2 receptor expression cell, 30 minutes at room temperature, HTRF cAMP kit
pEC50: −log10 of the molar value.
Everything with pEC50 lower than 9 is -1; everything else, including exactly 9, is 1.

- compound: "CCCOc1ccc(C(=O)N2CCC(C)(C(=O)OC)Cc3ccccc32)c(Cl)c1 (racemic)"
  category: -1
- compound: "CC1(C(=O)O)CCN(C(=O)c2ccc(-n3cccn3)cc2Cl)c2ccccc2C1 (racemic)"
  category: -1
- compound: "Cc1cc(N2CCCC2)ccc1C(=O)N1CCC(F)(C(=O)O)Cc2ccccc21 (single isomer, unassigned)"
  category: 1
- compound: "CC(CO)NC(=O)C1(C)CCN(C(=O)c2ccc(-c3ncco3)cc2Cl)c2ccccc2C1 (racemic)"
  category: -1
- compound: "CC1(C(=O)NCC(N)=O)CCN(C(=O)c2ccc(-n3cccn3)cc2Cl)c2ccccc2C1 (racemic)"
  category: -1
- compound: "COC(=O)C1(F)CCN(C(=O)c2ccc(N3CCCC3)cc2C)c2ccccc2C1 (single isomer, unassigned)"
  category: 1
- compound: "Cc1cc(N2CCCC2)ccc1C(=O)N1CCC(C)(C(=O)O)Cc2ccccc21 (single isomer, unassigned)"
  category: 1
- compound: "CCCOc1ccc(C(=O)N2CCC(C)(C(=O)NCC(N)=O)Cc3ccccc32)c(Cl)c1 (racemic)"
  category: -1
- compound: "CC1(C(=O)NCC(N)=O)CCN(C(=O)c2ccc(-c3ncco3)cc2Cl)c2ccccc2C1 (racemic)"
  category: -1
- compound: "CC(CO)NC(=O)C1(C)CCN(C(=O)c2ccc(-n3cccn3)cc2Cl)c2ccccc2C1 (racemic)"
  category: -1
- compound: "Cc1ccn(-c2ccc(C(=O)N3CCC(C)(C(=O)NC(C)CO)Cc4ccccc43)c(Cl)c2)n1 (single isomer, unassigned)"
  category: -1
- compound: "Cc1cc(N2CCC(C)C2)ccc1C(=O)N1CCC(C)(C(=O)NCC(N)=O)Cc2ccccc21 (racemic)"
  category: 1
- compound: "Cc1ccn(-c2ccc(C(=O)N3C[C@@H](C)C(C)(C(=O)O)Cc4ccccc43)c(C)c2)n1 (mixture of isomers)"
  category: 1
- compound: "CC(CO)NC(=O)C1(F)Cc2ccccc2N(C(=O)c2ccc(N3CCCC3)cc2Cl)CC1C (racemic)"
  category: -1
